Origin of the recorded values: patent US20230312550A1

The molecules below have reported pIC50 for Prolyl endopeptidase, Prolyl Oligopeptidase (hPREP) (Homo sapiens (Human), UniProt P48147).
As a rule, pIC50 stands for the negative log10 of the concentration, concentration in M.

The cases that follow already have their pIC50 on record.
1) N#C[C@@H]1CSCN1C(=O)CNC(=O)c1ccnc2ccc(N3CCC(F)CC3)cc12 | 6.19
2) CCC1(C)CN(c2ccc3nccc(C(=O)NCC(=O)N4CSC[C@H]4C#N)c3c2)C1 | 6.47
3) CC[C@H]1COCCN1c1ccc2nccc(C(=O)NCC(=O)N3CSC[C@H]3C#N)c2c1 | 6.28

Quick one: pIC50 for CC1(C)CN(c2ccc3nccc(C(=O)NCC(=O)N4CSC[C@H]4C#N)c3c2)CCC1(F)F ?
6.32

Quick one: pIC50 for N#C[C@@H]1CSCN1C(=O)CNC(=O)c1ccnc2ccc(N3CCCOCC3)cc12 ?
6.59

Quick one: pIC50 for N#C[C@@H]1CSCN1C(=O)CNC(=O)c1ccnc2ccc(N3CC4(CC(F)C4)C3)cc12 ?
6.42

Quick one: pIC50 for N#C[C@@H]1CSCN1C(=O)CNC(=O)c1ccnc2ccc(N3C[C@@H]4[C@H](C3)[C@H]4C(F)(F)F)cc12 ?
6.68

Quick one: pIC50 for Cn1cc(-c2ccc3nccc(C(=O)NCC(=O)N4CSC[C@H]4C#N)c3c2)cn1 ?
6.48

---

This section presents compounds with their documented Papp B→A values.
# protocol_notes: Caco-2 cell permeability
# experimental_setup: human
# number only, unit ×10⁻⁶ cm/s dropped from output

1. C[C@@H]1COC[C@H](C)N1c1ccc2nccc(C(=O)NCC(=O)N3CSC[C@H]3C#N)c2c1 | 19
2. CCC1(O)CN(c2ccc3nccc(C(=O)NCC(=O)N4CSC[C@H]4C#N)c3c2)C1 | 12
3. CC1(C)CCN(c2ccc3nccc(C(=O)NCC(=O)N4CSC[C@H]4C#N)c3c2)C1=O | 19

Quick one: Papp B→A for N#C[C@@H]1CSCN1C(=O)CNC(=O)c1ccnc2ccc(N3CC(F)(F)OC(F)(F)C3)cc12 ?
32

Quick one: Papp B→A for N#C[C@@H]1CSCN1C(=O)CNC(=O)c1ccnc2ccc(N3CC(N4CCOCC4)C3)cc12 ?
10

Quick one: Papp B→A for CC(F)(F)C1CN(c2ccc3nccc(C(=O)NCC(=O)N4CSC[C@H]4C#N)c3c2)C1 ?
40

Quick one: Papp B→A for N#C[C@@H]1CSCN1C(=O)CNC(=O)c1ccnc2ccc(N3CCC4(CC3)OCCO4)cc12 ?
27

Quick one: Papp B→A for CCC1(O)CCN(c2ccc3nccc(C(=O)NCC(=O)N4CSC[C@H]4C#N)c3c2)CC1 ?
13

---

# tested_system: hFAP (M39-A757) (Homo sapiens (Human), UniProt Q12884)
# Sequence (Q12884 39-757): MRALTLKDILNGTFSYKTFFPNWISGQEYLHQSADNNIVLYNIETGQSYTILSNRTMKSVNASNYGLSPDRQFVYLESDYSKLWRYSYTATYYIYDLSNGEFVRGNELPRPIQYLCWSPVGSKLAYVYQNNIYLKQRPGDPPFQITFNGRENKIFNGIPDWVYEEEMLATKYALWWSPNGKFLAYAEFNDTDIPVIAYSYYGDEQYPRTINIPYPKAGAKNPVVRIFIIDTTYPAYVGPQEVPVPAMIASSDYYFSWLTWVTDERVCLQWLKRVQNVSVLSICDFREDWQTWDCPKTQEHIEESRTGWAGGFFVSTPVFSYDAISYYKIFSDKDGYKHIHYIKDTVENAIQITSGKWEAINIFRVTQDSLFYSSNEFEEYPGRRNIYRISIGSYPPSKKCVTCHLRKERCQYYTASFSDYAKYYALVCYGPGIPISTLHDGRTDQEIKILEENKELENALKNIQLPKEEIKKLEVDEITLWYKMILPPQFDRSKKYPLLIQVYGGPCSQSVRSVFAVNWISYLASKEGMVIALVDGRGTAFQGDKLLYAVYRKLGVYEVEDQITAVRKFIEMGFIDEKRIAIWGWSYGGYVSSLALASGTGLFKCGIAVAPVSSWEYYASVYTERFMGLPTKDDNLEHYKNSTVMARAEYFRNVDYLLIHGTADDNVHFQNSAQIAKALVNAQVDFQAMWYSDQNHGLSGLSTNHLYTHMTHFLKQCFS
# protocol_notes: hFAP binding assay (surface plasmon resonance)
# experimental_setup: SPR, 20° C., single cycle kinetics
readout: hFAP Binding assay k(on) (M⁻¹ s⁻¹)
# number only, unit M⁻¹ s⁻¹ dropped from output

1) N#C[C@@H]1CSCN1C(=O)CNC(=O)c1ccnc2ccc(N3CCCC(F)(F)C3)cc12 | 3000000
2) N#C[C@@H]1CSCN1C(=O)CNC(=O)c1ccnc2ccc(N3CCC[C@H](F)C3)cc12 (mixture of isomers) | 1300000
3) C[C@H]1N(c2ccc3nccc(C(=O)NCC(=O)N4CSC[C@H]4C#N)c3c2)CC1(F)F (mixture of isomers) | 2100000
4) N#C[C@@H]1CSCN1C(=O)CNC(=O)c1ccnc2ccc(N3CCCC[C@H]3CF)cc12 | 5400000
5) N#C[C@@H]1CSCN1C(=O)CNC(=O)c1ccnc2c(Cl)cc(N3CCOCC3)cc12 | 560000

Moving on to the next compound.
hFAP (M39-A757) (Homo sapiens (Human), UniProt Q12884) / hFAP Binding assay k(on) / Cc1ccc(-c2ccc3nccc(C(=O)NCC(=O)N4CSC[C@H]4C#N)c3c2)cn1 : value?
100000
